Overview of recorded protein stability index for various variants
B1: TRAF3IP2 (parent)
chain: PGQPLPGASVRGLHPVQKVILNYP

Variants of: B1
assayText: protein stability index of a GFP-peptide fusion (GPS, HEK-293T) (PSI 1-6); higher = more stable;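 further: lentivirally expressed fusions sorted by FACS into six bins by GFP to DsRed ratio, PSI derived from sequencing read proportions per bin multiplied by bin number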
conditionSet: c terminus: a fixed tail appended
metricName: protein stability index

L5W : 2.94
R11I : 2.96
H14I : 3.04
L13F : 2.91
V10M : 3
Q17K : 2.97
P1F : 3
R11N : 2.96
G12N : 2.94
V19A : 3
H14V : 2.96
G7M : 3
